These measurements were taken from patent US20210300985A1.

Recorded measurements of IC50, one per entry
TARGET SYSTEM: HLA-DRB1*1101 (human)
ASSAY: competition binding; FIG. 35A
Number plus unit, in that order.

> print(dat)
                                     binder  recorded.measurement
1  KIVFKNMASRPYSIY [SEQ ID NO: 3 (KIVFKNMASRPYSIY)]               4.36 µM

Moving on to the next binder.
Data point: SHEFHAINGMIYSLP [SEQ ID NO: 7 (SHEFHAINGMIYSLP)] ; IC50 = 33.7 µM
